Source of measurements: patent US8802597B2

- Test system: wheat (Triticum aestivum)
- assay-protocol: Test B pre/postemergence
- Assay type: in vivo
- recorded-conditions: Postemergence, 500 g ai/ha; scale 0 to 100
metric-name: Plant response rating, Wheat
Provide a numeric answer; units are not to be included.

COCc1nc(C2CC2)nc(N)c1Br | 40

Data request: // lookup Plant response rating, Wheat for `CCOC(=O)Cc1nc(-c2ccc(Cl)cc2)nc(N)c1Br`
Data returned: 40

Data request: // returns reported Plant response rating, Wheat for input `CC(=O)NN=Cc1nc(C2CC2)nc(N)c1Br`
Data returned: 40

----------
- Tested on: morningglory (Ipomoea coccinea)
- assay-protocol: Test B pre/postemergence
- Assay type: in vivo
- recorded-conditions: Postemergence, 500 g ai/ha; scale 0 to 100
metric-name: Plant response rating, Morningglory
// no unit, no text: just the number

Some compounds with recorded Plant response rating, Morningglory:
CCOC(=O)C(OC(C)=O)c1nc(C2CC2)nc(N)c1Br (centres unmarked) [Compound 47] | 90
CON=Cc1nc(C2CC2)nc(N)c1Br [Compound 48] | 80

Data request: GET /values?readout=Plant response rating, Morningglory&item= CCOC(=O)C(C)c1nc(C2CC2)nc(N)c1Br (centres unmarked) [Compound 32]
Data returned: 90

Data request: Which Plant response rating, Morningglory is listed for CN(C)N=Cc1nc(C2CC2)nc(N)c1Br [Compound 50] ?
Data returned: 90

Data request: # query: Plant response rating, Morningglory of entry CCOC(=O)c1nc(-c2ccc(Cl)cc2)nc(N)c1Br [Compound 37]
Data returned: 100

----------
- Tested on: morningglory (Ipomoea spp.)
- assay-protocol: Test A pre/postemergence
- Type: in vivo
- recorded-conditions: Preemergence, 125 g ai/ha; 0 to 100 scale where 0 is no effect and 100 is complete control; approximately ten days
Binary call on Plant response rating, Morningglory with cut-off 10: strictly below means YES, and equality or higher means NO.

Data request: Identify whether the compound `CCOC(=O)COc1nc(-c2ccc(Cl)cc2)nc(N)c1Cl` records Plant response rating, Morningglory below 10.
Data returned: YES

Data request: For this compound, is Plant response rating, Morningglory lower than 10? `CCOC(=O)c1nc(-c2ccc(Cl)cc2)nc(N)c1I`
Data returned: YES

Data request: Just wondering, is Plant response rating, Morningglory of `CCCCOC(=O)c1nc(C2CC2)nc(N)c1Cl` below 10?
Data returned: NO

Data request: Strictly below 10: is that where Plant response rating, Morningglory of `Nc1nc(C2CC2)nc(C(=O)OCCCOC(=O)c2nc(C3CC3)nc(N)c2Cl)c1Cl` sits?
Data returned: NO

Data request: Given `Nc1nc(C2CC2)nc(OCC(=O)[O-])c1Cl.[Na+]` , is recorded Plant response rating, Morningglory strictly lower than 10?
Data returned: NO

Data request: Just wondering, is Plant response rating, Morningglory of `Nc1nc(-c2ccc(F)cc2)nc(C(=O)O)c1Br` below 10?
Data returned: YES

Data request: Dear colleague, could you confirm whether Plant response rating, Morningglory of `CCOC(=O)c1nc(-c2ccc(OC)cc2)nc(N)c1Cl` falls below 10? Thanks.
Data returned: YES

Data request: Item Nc1nc(C2CC2)nc(C(=O)OCC2COC(=O)O2)c1Cl (stereo not shown) : Plant response rating, Morningglory beneath 10, strictly?
Data returned: NO

Data request: Quick check: Plant response rating, Morningglory of `CCOC(=O)c1nc(-c2ccc(Cl)cc2F)nc(N)c1Br` under 10?
Data returned: YES

Data request: API: query returns whether the compound falls strictly under 10 in Plant response rating, Morningglory. Query: `CCCOC(=O)c1nc(C2CC2)nc(N)c1Cl`
Data returned: NO

Data request: Identify whether the compound `COC(=O)c1nc(-c2ccc(F)cc2)nc(N)c1Br` records Plant response rating, Morningglory below 10.
Data returned: YES

Data request: Item `CCOC(=O)c1nc(-c2ccc(Cl)cc2Cl)nc(N)c1Br` : Plant response rating, Morningglory beneath 10, strictly?
Data returned: YES

----------
- System: lambsquarters (Chenopodium album)
- assay-protocol: Test B pre/postemergence
- Assay type: in vivo
- recorded-conditions: Preemergence, 125 g ai/ha; scale 0 to 100 (0 no effect, 100 complete control)
Plant response rating, Lambsquarters for assorted compounds
When you answer, write just the number.

CC(C)OC(=O)c1nc(C2CC2)nc(N)c1Br | 90
CCOC(=O)c1nc(C2CC2)nc(NCCN(C)C)c1Br | 20
CCOC(=O)c1nc(C2CC2)nc(NCCOC)c1Br | 50

Data request: Need Plant response rating, Lambsquarters, item `CCCOC(=O)c1nc(C2CC2)nc(N)c1Cl`
Data returned: 100

----------
- Test system: barnyardgrass (Echinochloa crus-galli)
- assay-protocol: Test A pre/postemergence
- Assay type: in vivo
- recorded-conditions: Postemergence, 500 g ai/ha; 0 to 100 scale (0 no effect, 100 complete control)
Recorded Plant response rating, Barnyardgrass, one value per entry.
Answer with a bare number; do not write a unit.

Nc1nc(-c2ccc(Cl)cc2)nc(C(=O)[O-])c1Cl.[Na+] | 90

Data request: // lookup Plant response rating, Barnyardgrass for `CCOC(=O)c1nc(-c2ccc(Cl)cc2F)nc(N)c1Br`
Data returned: 5

Data request: Need Plant response rating, Barnyardgrass of `Cc1ccc(-c2nc(N)c(Cl)c(C(=O)O)n2)cc1` , thanks.
Data returned: 90

Data request: Which value of Plant response rating, Barnyardgrass has been reported for `CCOC(=O)COc1nc(C2CC2)nc(N)c1Cl` in the records?
Data returned: 0

Data request: Tell me the measured Plant response rating, Barnyardgrass of `CCOC(=O)c1nc(-c2ccc(C)cc2)nc(N)c1Cl` , please.
Data returned: 80

----------
- Test system: velvetleaf (Abutilon theophrasti)
- assay-protocol: Test B pre/postemergence
- Assay type: in vivo
- recorded-conditions: Abutilon theophrasti, post-emergence, Postemergence, 500 g ai/ha; scale 0 to 100; read-out: Plant response rating, Velvetleaf
metric-name: pest or weed control at 500 g/ha

Data request: Name the reported pest or weed control at 500 g/ha value associated with the compound CCOC(=O)c1nc(C2CC2)nc(N)c1F [Compound 30]
Data returned: 90%

Data request: Find the recorded pest or weed control at 500 g/ha belonging to Nc1nc(C2CC2)nc(C=O)c1Br [Compound 26] and report it.
Data returned: 70%

Data request: Consider the compound shown here: COC(=O)c1nc(C2CC2)nc(N)c1Br [Compound 2] What is its recorded pest or weed control at 500 g/ha?
Data returned: 100%

----------
Plant response rating, Crabgrass values for the molecules below.
- Test system: crabgrass (Digitaria sanguinalis)
- assay-protocol: Test C pre/postemergence
- Format: in vivo
- recorded-conditions: Preemergence, 125 g ai/ha; scale 0 to 100
A bare number is all that is needed in reply.

Solved cases below.
CCOC(=O)Cc1nc(C2CC2)nc(N=CN(C)C)c1Br | 20
CCCOC(=O)c1nc(C2CC2)nc(N)c1Cl | 60
COC(=O)Cc1nc(C2CC2)nc(N)c1Br | 0

Data request: # lookup: Plant response rating, Crabgrass of CCOC(=O)C(OC(C)=O)c1nc(C2CC2)nc(N)c1Br (stereo not shown)
Data returned: 100

----------
- Tested on: crabgrass (Digitaria sanguinalis)
- assay-protocol: Test B pre/postemergence
- Assay type: in vivo
- recorded-conditions: Postemergence, 125 g ai/ha; scale 0 to 100 (0 no effect, 100 complete control)
metric-name: Crabgrass plant response rating
No unit in the answer, only the number.

Example results:
CC=NNc1nc(C2CC2)nc(C(=O)OC)c1Br [Compound 124] | 10
CCOC(=O)C(OC(C)=O)c1nc(C2CC2)nc(N)c1Br (stereo not drawn) [Compound 47] | 10

Could you now consider this next compound?
Data request: Quick one: Crabgrass plant response rating for COC(OC)c1nc(C2CC2)nc(N)c1F [Compound 46] ?
Data returned: 10

----------
Listed molecules paired with reported pest or weed control at 500 g/ha
- Test system: barnyardgrass (Echinochloa crus-galli)
- assay-protocol: Test A pre/postemergence
- Type: in vivo
- recorded-conditions: Echinochloa crus-galli, post-emergence, 240 h, Postemergence, 500 g ai/ha; 0 to 100 scale (0 no effect, 100 complete control); read-out: Plant response rating, Barnyardgrass
# unit: % | format: bare number

Sample answers from the record:
CNc1nc(C2CC2)nc(C(=O)OC)c1Cl | 90
CCOC(=O)c1nc(-c2ccc3c(c2)OCO3)nc(N)c1Br | 0

Data request: Could you tell me which pest or weed control at 500 g/ha is on file for `CCOC(=O)c1nc(-c2ccc(Br)cc2)nc(N)c1Cl` ?
Data returned: 60

Data request: Would you kindly share the measured pest or weed control at 500 g/ha for `CNC(=O)c1nc(C2CC2)nc(N)c1Cl` ?
Data returned: 30

Data request: Which pest or weed control at 500 g/ha is listed for Nc1nc(C2CC2)nc(C(=O)[O-])c1Br.[Na+] [Compound 113, monosodium salt] ?
Data returned: 90
